Test system: phospho-akt (Thr308) in PC-3 cells
Assay: Inhibition of phospho-akt (Thr308) in PC-3 cells, MSD phospho-akt 308 ELISA kit
Type: cell-based
Details: Homo sapiens; inhibition of P308 Akt in PC-3 cells using MSD, 2 hours, no serum; read-out: EC50

{"compound": "Nc1ncc(-c2ccc(CNc3ncc(C(F)(F)F)cc3C(=O)Nc3ccc(F)cc3)cc2)nc1O[C@H]1CCNC1", "EC50": "< 1000 nM"}
{"compound": "C[C@H](NC(=O)c1cccnc1NCc1ccc(-c2ccc3ncnc(N4CCC4)c3c2)s1)c1ccc(F)c(F)c1", "EC50": "1000 to 10000 nM"}
{"compound": "C[C@H](NC(=O)c1nc(C#N)cnc1NCC1CCC(c2cnc3[nH]nc(N)c3c2)CC1)c1ccc(F)c(F)c1 (stereo partly shown)", "EC50": "< 1000 nM"}
{"compound": "Nc1ncc(-c2ccc(CNc3ncc(C(F)(F)F)cc3C(=O)Nc3ccc(F)cc3)cc2)nc1CCC1CCCNC1 (stereo not shown)", "EC50": "1000 to 10000 nM"}
{"compound": "C[C@H](NC(=O)c1cc(C#N)cnc1NCC1CCN(c2cnc(N)cn2)CC1)c1ccc(F)cc1", "EC50": "> 10000 nM"}
{"compound": "C[C@@H](Nc1ncc(C(F)(F)F)nc1C(=O)Nc1ccc(F)cc1)c1ccc(-c2cnc3[nH]nc(N)c3c2)cc1", "EC50": "< 1000 nM"}
{"compound": "C[C@H](NC(=O)c1cc(C#N)cnc1NCc1ccc(-c2cnc3[nH]nc(CN(C)C)c3c2)cc1)c1ccc(F)cc1", "EC50": "> 10000 nM"}
